Source of measurements: patent US20040138272A1

# TESTED_ON: human Rho kinase II (ROCK-II (h)) (Homo sapiens)
# Sequence (O75116 whole entry): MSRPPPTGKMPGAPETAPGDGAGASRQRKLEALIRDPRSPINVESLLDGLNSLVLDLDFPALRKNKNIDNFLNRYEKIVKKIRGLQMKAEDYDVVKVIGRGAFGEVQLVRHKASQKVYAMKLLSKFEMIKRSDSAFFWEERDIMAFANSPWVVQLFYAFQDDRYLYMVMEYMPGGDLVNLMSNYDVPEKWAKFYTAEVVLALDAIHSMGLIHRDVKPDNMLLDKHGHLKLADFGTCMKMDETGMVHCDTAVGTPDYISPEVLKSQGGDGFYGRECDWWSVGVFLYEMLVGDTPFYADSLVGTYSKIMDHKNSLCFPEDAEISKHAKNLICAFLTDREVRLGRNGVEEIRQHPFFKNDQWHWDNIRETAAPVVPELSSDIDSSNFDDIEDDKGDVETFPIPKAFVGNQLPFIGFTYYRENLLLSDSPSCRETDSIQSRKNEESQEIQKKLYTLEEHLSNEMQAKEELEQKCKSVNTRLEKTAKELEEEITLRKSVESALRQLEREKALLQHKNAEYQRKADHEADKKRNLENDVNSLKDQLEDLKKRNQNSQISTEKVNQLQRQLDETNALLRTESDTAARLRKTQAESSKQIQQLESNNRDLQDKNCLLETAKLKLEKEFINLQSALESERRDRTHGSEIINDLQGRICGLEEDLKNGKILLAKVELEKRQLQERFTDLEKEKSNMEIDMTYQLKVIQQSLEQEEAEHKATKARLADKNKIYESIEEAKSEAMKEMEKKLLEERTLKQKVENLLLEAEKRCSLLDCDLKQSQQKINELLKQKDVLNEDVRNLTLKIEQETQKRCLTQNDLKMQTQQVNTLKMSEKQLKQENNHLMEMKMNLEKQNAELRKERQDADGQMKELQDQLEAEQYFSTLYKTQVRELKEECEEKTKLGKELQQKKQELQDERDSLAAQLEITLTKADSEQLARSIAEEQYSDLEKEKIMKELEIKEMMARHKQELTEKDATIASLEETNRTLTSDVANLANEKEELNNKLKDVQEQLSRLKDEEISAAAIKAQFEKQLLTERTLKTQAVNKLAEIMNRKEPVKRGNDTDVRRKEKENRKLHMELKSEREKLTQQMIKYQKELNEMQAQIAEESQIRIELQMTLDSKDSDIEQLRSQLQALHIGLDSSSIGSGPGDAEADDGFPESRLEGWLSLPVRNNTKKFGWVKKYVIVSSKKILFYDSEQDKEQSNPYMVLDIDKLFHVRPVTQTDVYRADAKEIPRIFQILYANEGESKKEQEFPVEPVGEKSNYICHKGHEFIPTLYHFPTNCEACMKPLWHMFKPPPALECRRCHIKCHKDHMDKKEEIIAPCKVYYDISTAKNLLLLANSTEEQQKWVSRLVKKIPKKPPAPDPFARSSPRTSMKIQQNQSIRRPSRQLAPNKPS
# EXPERIMENT_SUMMARY: Commercial inhibition assay with recombinant human ROCKII, IC50 curves (FIGS. 8, 9)
PROPERTY: IC50 (µM)
Numbers only, in µM.

Enquiry: Read off the recorded IC50 for CCCCCCCCNN[C@H]1CC[C@H](C(=O)Nc2ccncc2)CC1.Cl.Cl [BA-1037, Dihydrochloride]
Return: 6.5
